- TARGET UNDER TEST: GCGR extracellular domain (human, UniProt P47871)
- Sequence (P47871 26-477): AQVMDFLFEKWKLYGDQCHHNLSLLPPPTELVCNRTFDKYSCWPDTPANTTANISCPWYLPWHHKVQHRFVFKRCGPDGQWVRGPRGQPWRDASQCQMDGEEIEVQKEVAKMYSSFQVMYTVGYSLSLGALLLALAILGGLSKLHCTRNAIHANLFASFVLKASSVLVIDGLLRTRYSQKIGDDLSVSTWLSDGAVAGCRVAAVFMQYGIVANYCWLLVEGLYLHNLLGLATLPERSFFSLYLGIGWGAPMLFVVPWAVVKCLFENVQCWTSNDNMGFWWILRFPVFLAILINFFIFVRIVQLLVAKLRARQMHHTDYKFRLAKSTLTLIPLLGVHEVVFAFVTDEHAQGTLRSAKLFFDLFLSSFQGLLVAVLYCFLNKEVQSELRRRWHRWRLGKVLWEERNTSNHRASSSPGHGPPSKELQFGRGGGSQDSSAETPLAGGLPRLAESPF
- MEASUREMENT NOTES: SPR
Recorded measurements of Kd, one per entry
Use nM as the unit, but write only the number.

INPUT: Recorded Kd of VL Y94D (antibody, V domains shown) VH: EVQLVESGGGLVQPGGSLRLSCAASGFNIYYNYIHWVRQAPGKGLEWVAEFSPYSGSTYYADSVKGRFTISADTSKNTAYLQMNSLRAEDTAVYYCARSAAIVDWYDYFKGFDYWGQGTLVTVSS VL: DIQMTQSPSSLSASVGDRVTITCRASQSVSSAVAWYQQKPGKAPKLLIYSASSLYSGVPSRFSGSRSGTDFTLTISSLQPEDFATYYCQQYGSDLYTFGQGTKVEIK , please.
OUTPUT: 1.92

INPUT: What value of measured Kd is listed for VL S93T (antibody, V domains shown) VH: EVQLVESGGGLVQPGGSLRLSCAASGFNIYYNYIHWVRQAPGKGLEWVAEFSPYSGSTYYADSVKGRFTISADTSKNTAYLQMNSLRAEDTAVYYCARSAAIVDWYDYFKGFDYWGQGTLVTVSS VL: DIQMTQSPSSLSASVGDRVTITCRASQSVSSAVAWYQQKPGKAPKLLIYSASSLYSGVPSRFSGSRSGTDFTLTISSLQPEDFATYYCQQYGTYLYTFGQGTKVEIK ?
OUTPUT: 1.27

INPUT: Tell me the measured Kd of VL S93N (antibody, V domains shown) VH: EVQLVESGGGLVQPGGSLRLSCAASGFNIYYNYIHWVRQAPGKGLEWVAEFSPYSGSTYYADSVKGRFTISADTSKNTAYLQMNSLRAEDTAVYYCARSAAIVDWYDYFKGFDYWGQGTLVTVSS VL: DIQMTQSPSSLSASVGDRVTITCRASQSVSSAVAWYQQKPGKAPKLLIYSASSLYSGVPSRFSGSRSGTDFTLTISSLQPEDFATYYCQQYGNYLYTFGQGTKVEIK , please.
OUTPUT: 0.962
